All figures here come from patent US20190309059A1.

- measured_target: his-labeled human IL-13 (immunogen A) (human) (UniProt P35225)
- measurement_description: FACS blocking, biotin-IL-13 on IL-13Ra2 HEK293 cells; antibody at 6.67 nM
measurement_name: mean fluorescence intensity
A bare number is all that is needed in reply.

Answered cases to consult:
binder	measured
28A2E11 (lead antibody, mouse hybridoma) (antibody, V domains shown, Mouse monoclonal antibody purified from hybridoma supernatant on Protein G) VH: EVQLQQSGAELVKPGASVKLSCTASGFNIKDYYMHWVKQRTEQGLEWIGRIDPEDGETKYAPKFHDKATLTADTSSNTAYLQFSSLASEDTAVYYCTRYDYYGPFAYWGQGTLVTVSA VL: QAVVTQESVLTTSPGETVTLTCRSSTGAVTTSNYANWVQEKPDHLFTGLIGGTNNRAPGVPARFSGSLIGDKAALTITGAQTEDEAIYFCALWYINHFIFGSGTKVTVL	55.9
c28A2E11 (mouse-human chimeric IL-13 antibody) (antibody, V domains shown) VH: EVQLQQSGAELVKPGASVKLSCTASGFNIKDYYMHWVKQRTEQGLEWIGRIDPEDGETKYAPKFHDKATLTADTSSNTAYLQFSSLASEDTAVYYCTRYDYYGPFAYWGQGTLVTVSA VL: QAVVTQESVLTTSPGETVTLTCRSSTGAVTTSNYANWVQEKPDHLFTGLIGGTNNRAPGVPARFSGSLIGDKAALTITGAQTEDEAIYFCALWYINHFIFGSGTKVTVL	65.7

## Task Suppose we examine the binder c29D9H8 (mouse-human chimeric IL-13 antibody) (antibody, V domains shown) VH: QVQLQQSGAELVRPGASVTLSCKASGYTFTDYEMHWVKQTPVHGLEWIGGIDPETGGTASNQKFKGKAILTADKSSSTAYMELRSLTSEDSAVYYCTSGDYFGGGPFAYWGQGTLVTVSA VL: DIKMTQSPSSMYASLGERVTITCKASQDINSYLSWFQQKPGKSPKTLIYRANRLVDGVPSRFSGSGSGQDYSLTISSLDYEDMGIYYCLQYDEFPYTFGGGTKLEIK ; what mean fluorescence intensity value has been reported?
## Result 25
